target: NH(3)-dependent NAD(+) synthetase (Bacillus subtilis (strain 168)); assay: Inhibitory activity against Bacillus subtilis NAD synthetase
Sequence (P08164 whole entry): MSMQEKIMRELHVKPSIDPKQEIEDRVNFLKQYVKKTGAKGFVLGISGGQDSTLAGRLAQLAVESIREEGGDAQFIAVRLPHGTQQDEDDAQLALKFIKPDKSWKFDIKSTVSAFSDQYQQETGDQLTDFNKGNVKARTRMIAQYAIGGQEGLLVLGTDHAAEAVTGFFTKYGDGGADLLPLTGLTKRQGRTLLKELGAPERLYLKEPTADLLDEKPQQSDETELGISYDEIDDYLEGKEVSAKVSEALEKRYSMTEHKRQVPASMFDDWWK
pIC50: −log10 of the molar value.
measured.metric: pIC50

Prompt: For the compound CN[C@@H]1[C@@H](O)[C@@H](O[C@@H]2[C@@H](O)[C@H](O[C@H]3O[C@H]([C@@H](C)NC)CC[C@H]3N)[C@@H](N)C[C@H]2N)OC[C@]1(C)O [GENTAMICIN] , what pIC50 is on record?
Response: < 6.00
